Below is a list of entries, each paired with its recorded Emax value.
# measured target: M1 muscarinic receptor (Homo sapiens, UniProt P11229)
# Construct: expressed in transfected cells; host or cells: CHO (M1-CHO)
# Sequence (P11229 1-460): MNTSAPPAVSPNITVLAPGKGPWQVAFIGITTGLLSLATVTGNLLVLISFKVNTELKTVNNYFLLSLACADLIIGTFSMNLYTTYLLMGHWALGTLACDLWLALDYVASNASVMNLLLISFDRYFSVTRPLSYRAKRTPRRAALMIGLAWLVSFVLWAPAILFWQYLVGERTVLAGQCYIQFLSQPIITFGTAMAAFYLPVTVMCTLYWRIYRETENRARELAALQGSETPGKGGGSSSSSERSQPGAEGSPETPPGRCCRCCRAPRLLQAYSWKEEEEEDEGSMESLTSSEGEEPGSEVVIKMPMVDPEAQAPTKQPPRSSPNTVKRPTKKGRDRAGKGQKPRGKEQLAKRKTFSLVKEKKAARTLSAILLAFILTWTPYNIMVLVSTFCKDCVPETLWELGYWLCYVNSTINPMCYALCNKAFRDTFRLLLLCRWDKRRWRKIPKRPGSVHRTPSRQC
# measurement protocol: Functional mobilization of intracellular calcium (FLIPR) in M1-CHO cells
# Format: cell-based
# experimental context: Table 4; 100% efficacy is the maximum response obtained with the Carbachol control

[[record]]
compound = "c1ccc2c(c1)CCCC21CCN(C2C[C@@H]3CC[C@H]2C3)CC1 (some centres unmarked) [compound 642]"
endpoint = "Emax"
reported_result = "25 to 100%"


// query Query Emax for CCOC(=O)N1CCC(CN2CCC3(CC2)CN(C(C)=O)c2c(C)cccc23)CC1 [compound 785]
// result 25 to 100%

// query Please report the measured Emax for CN(C)C(=O)NC1CCC2(CCN(CCC3CC4CCC3C4)CC2)c2ccccc21 (centres unmarked) [compound 1010]
// result < 25%

* * *

# measured target: M1 muscarinic receptor (Homo sapiens)
# Construct: expressed in transfected cells; host or cells: CHO (M1-CHO)
# measurement protocol: Functional mobilization of intracellular calcium (FLIPR) in M1-CHO cells
# Type: cell-based
# experimental context: M1 receptor, calcium mobilization; read-out: M1 Efficacy
endpoint: Emax

// query Identify Emax associated with the molecule CCOC(=O)N1CCC(CN2CCC3(CC2)CN(C(C)=O)c2ccc(Cl)cc23)CC1
// result < 65%

// query Look up and report measured Emax for this entry: CCOC(=O)N1CCC(N2CCC3(CC2)CN(C(C)=O)c2ccc(-c4ccccc4)cc23)CC1
// result < 65%

// query Give a short answer stating reported Emax for CCCC1CCC(N2CCC3(CC2)CNc2ccc(F)cc23)CC1 (centres unmarked) .
// result < 65%

// query Could you please provide reported Emax for CCOC(=O)N1CCC(N2CCC3(CC2)CN(C(=O)C2CCC2)c2ccc(F)cc23)CC1 ? Thanks!
// result 65 to 85%

// query // Input: CCOC(=O)N1C2CCC1CC(N1CCC3(CC1)CNc1ccc(C)cc13)C2 (centres unmarked) . Output its Emax only.
// result 65 to 85%

// query Identify measured Emax associated with CN(C)C(=O)N1CC2(CCN(C3CCN(C(=O)O[C@H]4CCOC4)CC3)CC2)c2cc(F)ccc21
// result < 65%

// query Return the recorded Emax value; entry: CCCC(=O)N1CC2(CCN(C3CCN(C(=O)OCC)CC3)CC2)c2cc(F)ccc21
// result 65 to 85%
